Tested on: 2Sp-muMax20 (muMax20 with two 2,6-bis(methyl)pyridine Cys staples)
MEASUREMENT NOTES: PBM 8-mer E-score (E-score (rank enrichment, -0.5 to 0.5)); higher = stronger preferential binding
Whole data set: some 33,000 sequences, median “E-score (rank enrichment, -0.5 to 0.5)” near -0.0043, cut for the highest 2% near 0.24. For the sample, the highest values were picked, then their nearest neighbours and some sequences at random.
Assign PBM 8-mer E-score to each entry below.
Please give the numeric answer without any surrounding text.

# input Answer with the recorded PBM 8-mer E-score of TCGTACAA only.
# output 0.1

# input Answer with the recorded PBM 8-mer E-score of AAATATAC only.
# output 0.087

# input Answer with the recorded PBM 8-mer E-score of GAATATAA only.
# output 0.215

# input Answer with the recorded PBM 8-mer E-score of CCCTTCAC only.
# output 0.0356

# input Answer with the recorded PBM 8-mer E-score of ATTATAAC only.
# output 0.247

# input Answer with the recorded PBM 8-mer E-score of ACACGCGC only.
# output 0.118

# input Answer with the recorded PBM 8-mer E-score of AGGTAGAG only.
# output -0.122

# input Answer with the recorded PBM 8-mer E-score of GATGATTA only.
# output 0.103

# input Answer with the recorded PBM 8-mer E-score of GAATTGAA only.
# output 0.0949

# input Answer with the recorded PBM 8-mer E-score of ACACATAA only.
# output 0.24

# input Answer with the recorded PBM 8-mer E-score of GCACGTTA only.
# output 0.113

# input Answer with the recorded PBM 8-mer E-score of TTATTGAA only.
# output 0.3

# input Answer with the recorded PBM 8-mer E-score of GGTCTCAC only.
# output 0.0156

# input Answer with the recorded PBM 8-mer E-score of GTGATACA only.
# output 0.0186

# input Answer with the recorded PBM 8-mer E-score of ATCGATAA only.
# output 0.00019

# input Answer with the recorded PBM 8-mer E-score of CATAACTA only.
# output 0.0886

# input Answer with the recorded PBM 8-mer E-score of CTACATAA only.
# output 0.122

# input Answer with the recorded PBM 8-mer E-score of ATGCATCG only.
# output 0.0497

# input Answer with the recorded PBM 8-mer E-score of CTGATACA only.
# output -0.0277

# input Answer with the recorded PBM 8-mer E-score of AAATATTA only.
# output 0.28

# input Answer with the recorded PBM 8-mer E-score of TAACGACA only.
# output 0.087

# input Answer with the recorded PBM 8-mer E-score of AAATCCAA only.
# output 0.0276

# input Answer with the recorded PBM 8-mer E-score of AAATATAG only.
# output 0.148

# input Answer with the recorded PBM 8-mer E-score of CCACGTCC only.
# output -0.117

# input Answer with the recorded PBM 8-mer E-score of TCGCGCGA only.
# output 0.265

# input Answer with the recorded PBM 8-mer E-score of TTTATAAA only.
# output 0.246

# input Answer with the recorded PBM 8-mer E-score of GTTAACAA only.
# output 0.239

# input Answer with the recorded PBM 8-mer E-score of TTACATAA only.
# output 0.259

# input Answer with the recorded PBM 8-mer E-score of CATGATTC only.
# output 0.0562

# input Answer with the recorded PBM 8-mer E-score of AATTATGC only.
# output 0.202

# input Answer with the recorded PBM 8-mer E-score of GAACATAA only.
# output 0.0635

# input Answer with the recorded PBM 8-mer E-score of CTTATAAA only.
# output 0.184

# input Answer with the recorded PBM 8-mer E-score of CCTAAATA only.
# output 0.125

# input Answer with the recorded PBM 8-mer E-score of GATAACTA only.
# output 0.245

# input Answer with the recorded PBM 8-mer E-score of ACTAAATA only.
# output 0.249

# input Answer with the recorded PBM 8-mer E-score of GCACATAA only.
# output 0.121

# input Answer with the recorded PBM 8-mer E-score of GTACATAA only.
# output 0.171

# input Answer with the recorded PBM 8-mer E-score of AAATTGAA only.
# output 0.24

# input Answer with the recorded PBM 8-mer E-score of CGACGTGC only.
# output 0.00092

# input Answer with the recorded PBM 8-mer E-score of CCCTATCC only.
# output -0.0867

# input Answer with the recorded PBM 8-mer E-score of ATTAATCC only.
# output 0.0916

# input Answer with the recorded PBM 8-mer E-score of GTGCATCA only.
# output 0.0111

# input Answer with the recorded PBM 8-mer E-score of CCAGAGCC only.
# output 0.0426

# input Answer with the recorded PBM 8-mer E-score of CTTAACAC only.
# output 0.164

# input Answer with the recorded PBM 8-mer E-score of CGATCCTC only.
# output -0.0245

# input Answer with the recorded PBM 8-mer E-score of ATTAATCA only.
# output 0.259

# input Answer with the recorded PBM 8-mer E-score of GTTAATCA only.
# output 0.198

# input Answer with the recorded PBM 8-mer E-score of GCGCGCAC only.
# output 0.203

# input Answer with the recorded PBM 8-mer E-score of CAACGTGG only.
# output 0.0662

# input Answer with the recorded PBM 8-mer E-score of GAATATTC only.
# output 0.189

# input Answer with the recorded PBM 8-mer E-score of ATGATACG only.
# output 0.271

# input Answer with the recorded PBM 8-mer E-score of AAATATTG only.
# output 0.075

# input Answer with the recorded PBM 8-mer E-score of CAGAGATC only.
# output -0.137

# input Answer with the recorded PBM 8-mer E-score of ACACCATG only.
# output 0.0073

# input Answer with the recorded PBM 8-mer E-score of CTTCGTTC only.
# output -0.0473

# input Answer with the recorded PBM 8-mer E-score of ACTAAATC only.
# output -0.0199

# input Answer with the recorded PBM 8-mer E-score of CCACACTA only.
# output 0.261

# input Answer with the recorded PBM 8-mer E-score of GTTAAATA only.
# output 0.296

# input Answer with the recorded PBM 8-mer E-score of GAATCCAA only.
# output 0.132

# input Answer with the recorded PBM 8-mer E-score of CCACGTTC only.
# output -0.0572

# input Answer with the recorded PBM 8-mer E-score of GCTAACAA only.
# output -0.0747

# input Answer with the recorded PBM 8-mer E-score of CCACGTGG only.
# output 0.455

# input Answer with the recorded PBM 8-mer E-score of CTTAAATA only.
# output 0.139

# input Answer with the recorded PBM 8-mer E-score of CAATATTA only.
# output 0.19

# input Answer with the recorded PBM 8-mer E-score of GCGCGCGA only.
# output 0.149

# input Answer with the recorded PBM 8-mer E-score of CCACGTAG only.
# output -0.11

# input Answer with the recorded PBM 8-mer E-score of GCACGCGC only.
# output 0.331

# input Answer with the recorded PBM 8-mer E-score of ACACACTA only.
# output 0.158

# input Answer with the recorded PBM 8-mer E-score of AAATATAT only.
# output 0.313

# input Answer with the recorded PBM 8-mer E-score of ATATTAAT only.
# output 0.318

# input Answer with the recorded PBM 8-mer E-score of ACGCATGG only.
# output 0.13

# input Answer with the recorded PBM 8-mer E-score of AAAAATAA only.
# output 0.0898

# input Answer with the recorded PBM 8-mer E-score of ACGCATGC only.
# output 0.277
